Below, each entry is listed alongside its reported IC50.
- Experimental System: APN (Microsomal Leucine aminopeptidase from porcine kidney EC 3.4.11.2) (Sus scrofa, UniProt P15145)
- Construct: Microsomal Leucine aminopeptidase from porcine kidney EC 3.4.11.2, Type IV-S, ammonium sulfate suspension; purchased Sigma-Aldrich; host or cells: porcine kidney (tissue-derived, microsomal)
- Sequence (P15145 whole entry): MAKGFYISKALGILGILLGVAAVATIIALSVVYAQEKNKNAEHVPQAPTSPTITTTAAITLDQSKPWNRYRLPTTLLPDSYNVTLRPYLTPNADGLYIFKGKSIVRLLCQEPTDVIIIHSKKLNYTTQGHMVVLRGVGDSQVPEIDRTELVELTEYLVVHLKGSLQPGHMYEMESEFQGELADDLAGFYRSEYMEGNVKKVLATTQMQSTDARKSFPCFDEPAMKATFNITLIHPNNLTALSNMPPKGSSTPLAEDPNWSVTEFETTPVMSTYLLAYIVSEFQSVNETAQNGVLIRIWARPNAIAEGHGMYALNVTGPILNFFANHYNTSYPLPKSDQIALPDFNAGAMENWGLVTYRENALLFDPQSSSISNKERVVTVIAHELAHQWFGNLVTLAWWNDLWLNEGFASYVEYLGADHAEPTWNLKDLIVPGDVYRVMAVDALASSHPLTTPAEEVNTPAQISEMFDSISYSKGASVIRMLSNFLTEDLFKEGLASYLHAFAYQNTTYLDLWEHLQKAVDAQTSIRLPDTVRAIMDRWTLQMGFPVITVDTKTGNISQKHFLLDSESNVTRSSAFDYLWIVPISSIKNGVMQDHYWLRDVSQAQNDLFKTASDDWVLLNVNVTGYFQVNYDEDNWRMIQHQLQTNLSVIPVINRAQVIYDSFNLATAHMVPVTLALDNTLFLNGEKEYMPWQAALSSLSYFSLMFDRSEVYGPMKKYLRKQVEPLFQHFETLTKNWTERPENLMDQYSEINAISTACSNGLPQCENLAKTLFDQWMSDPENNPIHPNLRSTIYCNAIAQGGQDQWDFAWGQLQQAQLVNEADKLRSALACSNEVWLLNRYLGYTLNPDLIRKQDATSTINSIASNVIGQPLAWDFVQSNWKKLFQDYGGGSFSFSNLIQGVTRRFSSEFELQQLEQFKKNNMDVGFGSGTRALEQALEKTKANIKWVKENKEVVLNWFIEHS
- Assay Remarks: APN inhibitory activity, spectrophotometry with L-leucine-p-nitroanilide
- Type: biochemical
- Test Conditions: DMSO as a cosolvent; read-out: IC50 Experimental
Answer in µM, number only, no unit symbol.

>>> observed("CC(=O)c1ccc(NC(=O)CN2CCN(Cc3ccccc3)CC2)cc1 [14-10-1]")
427

Okay, now this molecule:
Request: Request the reported IC50 associated with CCN(CC)CC(=O)Nc1ccc(C(C)=O)cc1 [14-2-1]
Result: 366

----------
- Experimental System: APN (Microsomal Leucine aminopeptidase from porcine kidney EC 3.4.11.2) (Sus scrofa)
- Construct: Microsomal Leucine aminopeptidase from porcine kidney EC 3.4.11.2, Type IV-S, ammonium sulfate suspension; purchased Sigma-Aldrich; host or cells: porcine kidney (tissue-derived, microsomal)
- Assay Remarks: APN inhibitory activity, spectrophotometry with L-leucine-p-nitroanilide
- Assay type: biochemical
- Test Conditions: TRIS-HCl buffer pH 7.5, 37 °C, 40 min, no cosolvent noted; read-out: IC50 Experimental
Below, each entry is listed alongside its reported pIC50.
A value of pIC50 is the negative decimal logarithm of a concentration given in moles per litre.

Example results:
>>> observed("CC(=NNC(N)=S)c1ccccc1NC(=O)CN1CCCCC1")
3.11
>>> observed("CC(=O)c1ccc(NC(=O)CN2CCOCC2)cc1")
3.37
>>> observed("CC(=NNC(N)=O)c1ccc(NC(=O)CN2CCOCC2)cc1")
2.78
>>> observed("CCCN(CCC)CC(=O)Nc1ccc(C(C)=NNC(N)=S)cc1")
2.90

Request: Request the reported pIC50 associated with CC(=NNC(N)=O)c1ccc(NC(=O)CN2CCCCC2)cc1
Result: 4.74

Request: Query CC(=NNC(N)=S)c1ccccc1NC(=O)CN1CCCCCC1 next
Result: 3.77

Request: Query CC(=O)c1ccc(NC(=O)CN2CCCCC2)cc1 next
Result: 3.76

Request: Query CC(=NNC(N)=S)c1ccc(NC(=O)CN2CCCCCC2)cc1 next
Result: 4.36

----------
- Experimental System: APN (Microsomal Leucine aminopeptidase from porcine kidney EC 3.4.11.2) (Sus scrofa)
- Construct: Microsomal Leucine aminopeptidase from porcine kidney EC 3.4.11.2, Type IV-S, ammonium sulfate suspension; purchased Sigma-Aldrich; host or cells: porcine kidney (tissue-derived, microsomal)
- Assay Remarks: APN inhibitory activity, spectrophotometry with L-leucine-p-nitroanilide
- Assay type: biochemical
- Test Conditions: NMP as a cosolvent; read-out: IC50 Experimental
Below, each entry is listed alongside its reported pIC50.
A value of pIC50 is the negative decimal logarithm of a concentration given in moles per litre.

>>> observed("CC(=NNC(N)=S)c1ccc(NC(=O)CN2CCCCC2)cc1 [24-6-1]")
2.81
>>> observed("CCCCN(CCCC)CC(=O)Nc1ccc(C(C)=NNC(N)=S)cc1 [24-4-1]")
2.77

Okay, now this compound:
Request: Request the reported pIC50 associated with CC(=NNC(N)=S)c1ccc(NC(=O)CN2CCCC2)cc1 [24-5-1]
Result: 4.45
